Please provide measured composite z-score for the entries that follow.
- Test system: Plasmodium falciparum Sir2 (PF13_0152, Sir2A)
- assay-name: pfSir2 binders on small-molecule microarrays, primary screen, biochemical, small-molecule microarray, 635 nm fluorescence (AID 1098);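 further: score merges spot fluorescence intensity with its signal-to-noise ratio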
- assay-setup: small-molecule microarray binding, fluorescence 635 nm; higher = more signal
Give bare numbers.

Reference set (5 entries):
CN(C)C(=O)[C@]1(CCS(=O)(=O)c2ccccc2)N=C(c2ccc(OCCCO)cc2)O[C@@H]1c1ccccc1N=[N+]=[N-] : 1.78
CC(C)(C)N1CC=CC23O[C@@H]4C=CCCOC(=O)C4[C@H]2C(=O)N(CCO)[C@@H]3C1=O (some centres not stated) : -1.04
CC(c1ccccc1)C(O)C1C=CC2C(=O)N(c3ccccc3)C(=O)C2N1Nc1ccc([N+](=O)[O-])cc1 (configuration not stated) : 1.38
CCCC[C@@H]1C[C@H]1[C@@H](NC(=O)Cc1ccccc1)c1ccc(-c2ccccc2)cc1 : -0.146
CO[C@]12C=C(Br)[C@@H](C[C@@H]1c1cccc(C)c1)[C@@]1(CO1)C2=O : 1.53

Dear reader, for each entry below, please note its composite z-score.
1. NC(=O)NCC#Cc1ccc2c(c1)[C@]1(C(=O)N2)[C@H](C(=O)NC[C@H](O)c2ccccc2)[C@H]2C(=O)O[C@H](c3ccccc3)[C@H](c3ccccc3)N2[C@@H]1c1ccc(OCCO)cc1
2. O=C1C=C(c2ccccc2)C(=O)c2ccc([C@H]3Oc4ccccc4S(=O)(=O)N4CCC[C@@H]34)cc21
3. C=CCC(OC(C)=O)[C@@H]1[C@@H](N(Cc2cc3ccccc3o2)C(=O)c2ccc(C)cc2)c2cc(OCCCO)ccc2N1C(=O)Cc1ccc(OC)cc1 (some centres not stated)
4. C=CCOC(=O)[C@H]1[C@@H]2C(=O)O[C@@H](c3ccccc3)[C@@H](c3ccccc3)N2[C@@H](c2ccc(OCCOC(=O)[C@@H]3C[C@@H]4C(=O)N[C@@H](CCCCN(C)C)C(=O)N4[C@@H]3c3ccc(O)cc3)cc2)[C@]12C(=O)Nc1ccccc12
5. O=C(NCC(F)(F)F)[C@@H]1c2ccccc2C(=O)N(Cc2ccccc2C(F)(F)F)[C@H]1c1ccc(CO)cc1
6. CCCCO[C@H]1C[C@H]2C(I)=C[C@@H]1C(=O)[C@]21CO1
7. Cn1cccc1C(O)C1C=CC2C(=O)NC(=O)C2N1Nc1ccc(Cl)cc1Cl (configuration not stated)

Key:
1. 0.0395
2. -0.186
3. -0.0682
4. 0.913
5. 1.78
6. 1.08
7. 1.21

// input: 5 compounds below; output: composite z-score for each
1. C=C(/C(=C/C[C@H](OC(C)=O)c1cccc(OCCO)c1)c1cnc2ccccc2c1)C(C)C
2. C=CCN1C(=O)[C@@]2(O[C@@H](CCn3cc([C@H](O)c4ccccc4)nn3)[C@H]([Si](C)(C)c3ccc(OC)cc3)[C@H]2C)c2cc(N3CCC3=O)ccc21
3. CC(C)N1C(=O)C[C@@](C(=O)NCCCN(C)C)(c2ccc([N+](=O)[O-])cc2)[C@H]1c1ccc(CO)cc1
4. CCOC(=O)c1ccc(NC(=O)O[C@H]2[C@H](OC(=O)Nc3ccc4c(c3)OCO4)[C@@H](OC(=O)Nc3ccc4c(c3)OCO4)[C@@H](OC)O[C@@H]2CO)cc1
5. Cc1ccc(S[C@]2(C(=O)NCC(F)(F)F)CC(=O)N(Cc3ccccc3C(F)(F)F)[C@@H]2c2ccc(CO)cc2I)cc1

Key:
[-0.96, 1.43, -0.133, 1.41, 1.46]
